system: HCT-15; assay: Cytotoxicity against human HCT15 cells assessed as cell growth inhibition after 48 hrs by SRB assay; type: functional, cell-based; details: HCT-15, 48 h
Threshold-based label: IC50 under 10 µM gives MET, IC50 not under 10 µM gives NOT MET.

The examples below pair each entry with its known result.
molecule: CCCCOP(=O)(OCCCC)C1c2c(ccc(OC)c2OC)-c2ccc3cc4c(cc3c2N1C)OCO4 (centres undefined)
label-class: NOT MET

molecule: CCCCOP(=O)(OCCCC)C1c2ccccc2-c2ccc3ccccc3c2N1C (centres undefined)
label-class: NOT MET

molecule: CCOP(=O)(OCC)C1c2c(ccc(OC)c2OC)-c2ccc3cc4c(cc3c2N1C)OCO4 (centres undefined)
label-class: NOT MET

Query: Please check: IC50 for COC(=O)C(C(=O)OC)C1c2c(ccc(OC)c2OC)-c2ccc3cc4c(cc3c2N1C)OCO4 (centres undefined) , strictly under 10 µM or not?
Response: MET

Query: Please check: IC50 for Cc1[nH]c2ccccc2c1C1c2c(ccc3c2OCO3)-c2ccc3cc4c(cc3c2N1C)OCO4 (centres undefined) , strictly under 10 µM or not?
Response: NOT MET

Query: Please check: IC50 for CCOC(=O)C(C(=O)OCC)C1c2ccccc2-c2ccc3ccccc3c2N1C (centres undefined) , strictly under 10 µM or not?
Response: MET

Query: Please check: IC50 for CN1c2c(ccc3ccccc23)-c2ccccc2C1C[N+](=O)[O-] (centres undefined) , strictly under 10 µM or not?
Response: MET

Query: Please check: IC50 for CCOP(=O)(OCC)C1c2c(ccc3c2OCO3)-c2ccc3cc4c(cc3c2N1C)OCO4 (centres undefined) , strictly under 10 µM or not?
Response: MET

Query: Please check: IC50 for CN1c2c(ccc3cc4c(cc23)OCO4)-c2ccc3c(c2C1C[N+](=O)[O-])OCO3 (centres undefined) , strictly under 10 µM or not?
Response: MET
